Assay Text: Acid pKa of the free base
Format: physicochemical
Readout Kind: pKa

// Input: COc1cc2c(cc1OC)[C@@H]1Cc3ccc(O)c(OC)c3CN1CC2 [Compound (1), l-corydalmine] . Output its pKa only. ~5.2

---

Assay Text: Pharmacokinetic study: plasma concentration and plasma PK parameters after IV/PO dosing (LC-MS/MS, WinNonlin)
Assay type: in vivo, Male SD Rat
Experimental Conditions: male, Sprague-Dawley, rat, plasma, iv, 3 mg/kg, male SD rat, IV 3 mg/kg, plasma, individual rats; read-out: C0
Readout Kind: C0

// Input: COc1cc2c(cc1OC)[C@@H]1Cc3ccc(O)c(OC)c3CN1CC2 . Output its C0 only. 1710 ng/mL

---

Assay Text: Pharmacokinetic study: plasma concentration and plasma PK parameters after IV/PO dosing (LC-MS/MS, WinNonlin)
Assay type: in vivo, Male SD Rat
Experimental Conditions: male, SD, rat, plasma, po, 10 mg/kg, male SD rat, PO 10 mg/kg (equal to freebase), plasma, individual rats; vehicle 20% HP-β-CD in water (POA, freebase) or water (salts); read-out: AUClast
Readout Kind: AUC(0-t) (ng·h/mL)
Answers are plain numbers, in ng·h/mL.

// Input: COc1cc2c(cc1OC)[C@@H]1Cc3ccc(O)c(OC)c3CN1CC2 . Output its AUC(0-t) only. 615

---

Assay Text: Pharmacokinetic study: plasma concentration and plasma PK parameters after IV/PO dosing (LC-MS/MS, WinNonlin)
Type: in vivo, Male SD Rat
Experimental Conditions: male SD rat, PO 10 mg/kg (equal to freebase), 2 h, mean n=3; vehicle 20% HP-β-CD in water (POA, freebase) or water (salts)
Readout Kind: concentration in plasma, Mean
// unit must come after the numeric part

Please review the following examples before continuing.
Compound | Observed
COc1cc2c(cc1OC)C1Cc3ccc(O)c(OC)c3CN1CC2.CS(=O)(=O)O (stereo not shown) [TLZ-16 mesylate] | 221 ng/mL
COc1cc2c(cc1OC)[C@@H]1Cc3ccc(O)c(OC)c3CN1CC2.O=C(O)C(=O)O [TLZ-16 oxalate] | 104 ng/mL
COc1cc2c(cc1OC)[C@@H]1Cc3ccc(O)c(OC)c3CN1CC2.Cl [TLZ-16 HCl] | 126 ng/mL

Alright, here's another compound for you.
// Input: COc1cc2c(cc1OC)[C@@H]1Cc3ccc(O)c(OC)c3CN1CC2.O=C(O)/C=C\C(=O)O [TLZ-16 maleate] . Output its concentration in plasma, Mean only. 112 ng/mL

---

Assay Text: Pharmacokinetic study: plasma concentration and plasma PK parameters after IV/PO dosing (LC-MS/MS, WinNonlin)
Type: in vivo, Male SD Rat
Experimental Conditions: male, SD, rat, plasma, po, 10 mg/kg, male SD rat, PO 10 mg/kg (equal to freebase), plasma, mean n=3; vehicle 20% HP-β-CD in water (POA, freebase) or water (salts); read-out: AUCInf, Mean
Readout Kind: AUC(0-inf) (ng·h/mL)
Numbers only, in ng·h/mL.

// Input: COc1cc2c(cc1OC)[C@@H]1Cc3ccc(O)c(OC)c3CN1CC2 [Compound (1), l-corydalmine] . Output its AUC(0-inf) only. 1080

---

Assay Text: Pharmacokinetic study: plasma concentration and plasma PK parameters after IV/PO dosing (LC-MS/MS, WinNonlin)
Format: in vivo, Male SD Rat
Experimental Conditions: male, SD, rat, plasma, po, 10 mg/kg, male SD rat, PO 10 mg/kg (equal to freebase), plasma, mean n=3; vehicle 20% HP-β-CD in water (POA, freebase) or water (salts); read-out: AUClast, Mean
Readout Kind: AUC(0-t) (ng·h/mL)
Answers are plain numbers, in ng·h/mL.

// Input: COc1cc2c(cc1OC)[C@@H]1Cc3ccc(O)c(OC)c3CN1CC2 . Output its AUC(0-t) only. 788

---

Exercise: state measured concentration in plasma, Mean for each of the compounds provided.
Assay Text: Pharmacokinetic study: plasma concentration and plasma PK parameters after IV/PO dosing (LC-MS/MS, WinNonlin)
Type: in vivo, Male SD Rat
Experimental Conditions: male SD rat, PO 10 mg/kg (equal to freebase), 0.25 h, mean n=3; vehicle 20% HP-β-CD in water (POA, freebase) or water (salts)
Numbers only, in ng/mL.

Parameter requested: concentration in plasma, Mean. Apply to each item below.
1. COc1cc2c(cc1OC)[C@@H]1Cc3ccc(O)c(OC)c3CN1CC2.O=C(O)C(=O)O [TLZ-16 oxalate]
2. COc1cc2c(cc1OC)[C@@H]1Cc3ccc(O)c(OC)c3CN1CC2.Cl [TLZ-16 HCl]
3. COc1cc2c(cc1OC)[C@@H]1Cc3ccc(O)c(OC)c3CN1CC2.O=C(O)/C=C\C(=O)O [TLZ-16 maleate]

1: 267; 2: 287; 3: 278

// Input: COc1cc2c(cc1OC)C1Cc3ccc(O)c(OC)c3CN1CC2.CS(=O)(=O)O (stereo not shown) [TLZ-16 mesylate] . Output its concentration in plasma, Mean only. 245

---

Assay Text: Pharmacokinetic study: plasma concentration and plasma PK parameters after IV/PO dosing (LC-MS/MS, WinNonlin)
Type: in vivo, Male SD Rat
Experimental Conditions: male, Sprague-Dawley, rat, plasma, iv, 3 mg/kg, male SD rat, IV 3 mg/kg, 0.5 h, individual rats; read-out: concentration in plasma
Readout Kind: concentration at 0.5 h (ng/mL)
One number for each entry, in ng/mL.

// Input: COc1cc2c(cc1OC)[C@@H]1Cc3ccc(O)c(OC)c3CN1CC2 . Output its concentration at 0.5 h only. 401

---

Assay Text: Pharmacokinetic study: plasma concentration and plasma PK parameters after IV/PO dosing (LC-MS/MS, WinNonlin)
Assay type: in vivo, Male SD Rat
Experimental Conditions: male SD rat, PO 10 mg/kg (equal to freebase), 4 h, mean n=3; vehicle 20% HP-β-CD in water (POA, freebase) or water (salts)
Readout Kind: concentration in plasma, Mean (ng/mL)
One number for each entry, in ng/mL.

Please review the following examples before continuing.
Compound | Units Label | concentration in plasma, Mean
COc1cc2c(cc1OC)[C@@H]1Cc3ccc(O)c(OC)c3CN1CC2.Cl [TLZ-16 HCl] | ng/mL | 82.8
COc1cc2c(cc1OC)C1Cc3ccc(O)c(OC)c3CN1CC2.CS(=O)(=O)O (stereo not shown) [TLZ-16 mesylate] | ng/mL | 162
COc1cc2c(cc1OC)[C@@H]1Cc3ccc(O)c(OC)c3CN1CC2.O=C(O)C(=O)O [TLZ-16 oxalate] | ng/mL | 92.7

Alright, here's another compound for you.
// Input: COc1cc2c(cc1OC)[C@@H]1Cc3ccc(O)c(OC)c3CN1CC2.O=C(O)/C=C\C(=O)O [TLZ-16 maleate] . Output its concentration in plasma, Mean only. 96.4

---

Assay Text: Solubility studies in water at 2 hours
Assay type: physicochemical

Compound | solubility in water
COc1cc2c(cc1OC)C1Cc3ccc(O)c(OC)c3CN1CC2.CS(=O)(=O)O (centres unmarked) [TLZ-16 mesylate] | approximately 20 mg/mL
COc1cc2c(cc1OC)[C@@H]1Cc3ccc(O)c(OC)c3CN1CC2.O=S(=O)(O)O [TLZ-16 sulfate] | approximately 20 mg/mL

---

Assay Text: Pharmacokinetic study: plasma concentration and plasma PK parameters after IV/PO dosing (LC-MS/MS, WinNonlin)
Format: in vivo, Male SD Rat
Experimental Conditions: male, Sprague-Dawley, rat, plasma, po, 10 mg/kg, male SD rat, PO 10 mg/kg (equal to freebase), 1 h, mean n=3; vehicle 20% HP-β-CD in water (POA, freebase) or water (salts); read-out: concentration in plasma, Mean
Readout Kind: concentration at 1 h (ng/mL)
Answers are plain numbers, in ng/mL.

// Input: COc1cc2c(cc1OC)[C@@H]1Cc3ccc(O)c(OC)c3CN1CC2 . Output its concentration at 1 h only. 125

---

Assay Text: Pharmacokinetic study: plasma concentration and plasma PK parameters after IV/PO dosing (LC-MS/MS, WinNonlin)
Type: in vivo, Male SD Rat
Experimental Conditions: male, SD, rat, plasma, po, 10 mg/kg, male SD rat, PO 10 mg/kg (equal to freebase), plasma, mean n=3; vehicle 20% HP-β-CD in water (POA, freebase) or water (salts); read-out: MRTInf_obs, Mean
Readout Kind: MRT inf

// Input: COc1cc2c(cc1OC)[C@@H]1Cc3ccc(O)c(OC)c3CN1CC2 . Output its MRT inf only. 7.84 h

---

Assay Text: Pharmacokinetic study: plasma concentration and plasma PK parameters after IV/PO dosing (LC-MS/MS, WinNonlin)
Type: in vivo, Male SD Rat
Experimental Conditions: male, Sprague-Dawley, rat, plasma, po, 10 mg/kg, male SD rat, PO 10 mg/kg, 24 h, mean (one rat BLOQ); vehicle 20% HP-β-CD in water (POA); read-out: concentration in plasma, Mean
Readout Kind: concentration at 24 h (ng/mL)
Numbers only, in ng/mL.

// Input: COc1cc2c(cc1OC)[C@@H]1Cc3ccc(O)c(OC)c3CN1CC2 . Output its concentration at 24 h only. 0.574
